Can you tell me GFP response vs DMSO for the items I'm about to list?
- assay.notes: RPL19A-GFP modulators, yeast TOR pathway, confirmation, cell-based, S. cerevisiae, flow cytometry, cherry picks, mother/daughter gates (AID 2270)
- condition.label: S. cerevisiae RPL19A-GFP strain, 3 h, measured here: daughter cell gate, at 10 µM, stronger effect = lower value, 100 = same GFP as DMSO wells
# value in %; strip the unit string

**Q:** Find the measured GFP response vs DMSO of "CN1C(=O)C(=Cc2ccc(Sc3ccccc3)o2)C(=O)N(C)C1=S" and report it.
**A:** 94.4

**Q:** Give GFP response vs DMSO for "O=C1NC(=O)N(Cc2ccco2)C(=O)/C1=C\c1ccc(-c2ccc(F)cc2)o1"
**A:** 97.6

**Q:** Supply GFP response vs DMSO value. Item: "Nc1ccc(N=Nc2ccccc2)cc1"
**A:** 98.4

**Q:** Identify GFP response vs DMSO associated with the compound "O=C1NC(=O)N(CCc2ccc(F)cc2)C(=O)/C1=C/c1cccs1"
**A:** 95

**Q:** Name the recorded GFP response vs DMSO of the compound listed here: "O=[N+]([O-])c1ccc(N2CCNCC2)cc1Sc1ccccn1"
**A:** 98.4

**Q:** Quickly give me recorded GFP response vs DMSO for "O=C(O)c1nn(Cc2ccc(Cl)cc2Cl)c2ccccc12"
**A:** 98.7

**Q:** Identify the reported GFP response vs DMSO for the following entry. "N#CC(C#N)=NNc1ccc(-n2ccc(C(F)(F)F)n2)cc1"
**A:** 97.6

**Q:** Return GFP response vs DMSO (reported value) for this compound: "C[C@H](O)[C@H]1CC[C@H]2[C@@H]3CCC4=CC(=O)CC[C@]4(C)[C@H]3CC[C@]12C"
**A:** 93

**Q:** Respond only with GFP response vs DMSO recorded for "C[C@]12CCC(=O)C=C1CC[C@@H]1[C@@H]2CC[C@]2(C)C(=O)CC[C@@H]12"
**A:** 95.1

**Q:** Give GFP response vs DMSO for "CCCCn1c(=O)c(C(=O)Nc2ccsc2C(=O)OC)c(O)c2ccccc21"
**A:** 94.9

====

- experimental.target: Botulinum neurotoxin type A (Clostridium botulinum)
- assay.notes: BoNT/A light chain protease inhibitors, biochemical, multiplex microsphere flow cytometry, validation set (AID 588460)
- condition.label: at 10 µM, stronger effect = higher value
recorded.metric: inhibition (%)
Kindly provide the numeric value in % only, without the unit symbol.

**Q:** Quote inhibition reported for "O=C(O)/C=C/c1ccc(O)c(O)c1" please.
**A:** -0.4

**Q:** Look up inhibition of "Cc1nonc1CN(C)C(=O)c1ccc(OC2CCN(C(=O)c3cccnc3)CC2)cc1" and report it.
**A:** 1.2

**Q:** Return reported inhibition. Input compound: "CCCCCC(=O)O[C@]1(C(C)=O)CC[C@H]2[C@@H]3CCC4=CC(=O)CC[C@]4(C)[C@H]3CC[C@@]21C"
**A:** 1.3

**Q:** Note down inhibition recorded for "CC#C[C@]1(O)CC[C@H]2[C@@H]3CCC4=CC(=O)CCC4=C3[C@@H](c3ccc(N(C)C)cc3)C[C@@]21C"
**A:** -2

**Q:** Fill in inhibition for record CN(Cc1ccccc1)CC(O)COc1ccc(CNCc2cccnc2)cc1 (stereo unspecified)
**A:** 0.2

**Q:** Name the recorded inhibition of the item "Cn1c(=O)oc2cc(S(=O)(=O)N3CCc4ccccc4C3)ccc21" in your answer.
**A:** -3

**Q:** Please give the documented inhibition of "O=C(CCCCCCCC(=O)c1ccccc1)c1ccccc1"
**A:** -2.3

**Q:** Fill in inhibition for record Cc1cccc(CN2CCN(C(c3ccccc3)c3ccc(Cl)cc3)CC2)c1 (stereo unspecified)
**A:** -2

**Q:** Return inhibition (reported value) for this compound: "Cc1cc(Cl)cc2c1NC(=O)[C@]21[C@@H]2C(=O)N(Cc3ccccc3)C(=O)[C@@H]2[C@@H]2CCCN21"
**A:** 1.7

**Q:** Quick one: give measured inhibition for "CCOc1cc(C=O)ccc1OCCSc1ccc(C)cc1"
**A:** 0.4

**Q:** For "CNS(=O)(=O)c1ccc(C)cc1" , write its inhibition.
**A:** -0.5

**Q:** In one line, give reported inhibition of the entry "COc1cccc(OC)c1C(=O)NCCSC1CCCCC1" .
**A:** 0

**Q:** Query inhibition for "CCOC(=O)COc1ccc2c(=O)c(-c3ccccc3)coc2c1"
**A:** 1.3

**Q:** Return reported inhibition. Input compound: "COc1ccc(O)c(C(=O)/C=C/c2cc3ccccc3o2)c1"
**A:** 0

**Q:** Report measured inhibition; entry is CC1(C)C(=O)OC(/C=C\c2ccccc2)C(C)(C)C1=O (stereo unspecified)
**A:** 0.1

**Q:** Output measured inhibition for this item: CC(C)[C@H](NC(=O)[C@@H]1CSCN1C(=O)OC(C)(C)C)C(=O)NCC1CCC(C(=O)O)CC1 (stereo partly specified)
**A:** -1.5

**Q:** Fill in reported inhibition for this entry: "CCOC(=O)N1CCc2[nH]c3ccc(C)cc3c2C1"
**A:** -1.6

**Q:** For the compound "CC(C)CCOCC(=O)Nc1cccc(C(=O)O)c1" , give its measured inhibition value.
**A:** 0

**Q:** Identify measured inhibition corresponding to Cc1ccc(C(=O)Nc2ccccc2C(=O)NC(C(=O)O)C(C)C)cc1 (stereo unspecified)
**A:** 0.5

**Q:** Fill in inhibition for record "N=c1ccn(CC(=O)NC(N)=O)c2ccccc12"
**A:** 1.6

**Q:** Please report inhibition for the following compound: "O=Cc1ccc(OC(=O)c2cccnc2)cc1"
**A:** -0.7

**Q:** Please supply the value of reported inhibition for the item "CN(C)CCN(Cc1cccs1)c1ccccn1"
**A:** -0.3

**Q:** Retrieve inhibition measured for "Oc1ccccc1OCCOc1ccccc1OCCOc1ccccc1O" and print it.
**A:** 0.7

**Q:** Tell me measured inhibition for "CNCCCN1c2ccccc2CCc2ccccc21" please.
**A:** -0.6

**Q:** Provide only the value of recorded inhibition for "O=C(O)CCCCCNC(=O)Nc1ccc2c(c1)OCCO2"
**A:** -1.4

**Q:** Please report the measured inhibition for "CC(C)NC(=O)C1(c2ccccc2)CCOCC1"
**A:** -0.5

**Q:** Determine its reported inhibition: "CC(=O)N[C@@H](CS)C(=O)O"
**A:** -0.8

**Q:** Return the recorded inhibition value; entry: CO/N=C(\C(=O)N[C@@H]1C(=O)N2C(C(=O)O)=C(COC(C)=O)CS[C@H]12)c1csc(N)n1 (stereo in doubt)
**A:** -1.1

**Q:** Tell us which inhibition value is on record for "COc1ccc(NC(=O)Nc2ccc(C(C)C)cc2)cc1"
**A:** 1.5

**Q:** Find the measured inhibition of "O=C1c2cccc3cccc(c23)C(=O)N1c1ccccn1" and report it.
**A:** 0.1

**Q:** Note inhibition for the compound shown: "O=C(Oc1cccccc1=O)c1ccccc1"
**A:** -1.5

**Q:** For the compound CC(C)(C)C(=O)Nc1cccc(OC(F)(F)C(F)Cl)c1 (stereo unspecified) , give its reported inhibition.
**A:** 0

**Q:** Give the reported inhibition for this compound. CN(C)c1ccc(C(CN)c2c[nH]c3ccccc23)cc1 (stereo unspecified)
**A:** -1.5

**Q:** Give me measured inhibition, please, for this compound: COCC1CCCN(Cc2cn[nH]c2-c2cc3ccccc3o2)C1 (stereo unspecified)
**A:** -1.5

**Q:** State its inhibition: "Cc1nnc(NS(=O)(=O)c2ccc(N)cc2)s1"
**A:** -1.1

**Q:** Please supply the value of reported inhibition for the item "COc1cc(/C=C/C(=O)O)cc(S(=O)(=O)NCCCO)c1OC"
**A:** 0.7

**Q:** Identify the reported inhibition for the following entry. "COc1ccccc1CCn1cnc2c3cc(C)ccc3n(C)c2c1=O"
**A:** -1

**Q:** Report inhibition, nothing else, for this compound: Cc1cccc(N2C(=O)C3C(c4ccccc4)OC4(C(=O)c5ccccc5C4=O)C3C2=O)c1 (stereo unspecified)
**A:** 1

**Q:** Read off the recorded inhibition for COCC(C)NC(=O)c1ccc(CN2CCc3ccccc3C2)cc1 (stereo unspecified)
**A:** 0

**Q:** Tell us which inhibition value is on record for "Fc1ccc(-n2cc(CNCCc3ccccn3)c(-c3ccccc3Cl)n2)cc1"
**A:** 1.1

**Q:** Using known records, supply inhibition for COc1ccc(CCN=C(N)C(C)c2ccccc2)cc1OC (stereo unspecified)
**A:** 0

**Q:** Quickly give me recorded inhibition for CC(C(=O)O)c1ccc(N2Cc3ccccc3C2=O)cc1 (stereo unspecified)
**A:** -1.6

**Q:** Give recorded inhibition. CC(=O)NC1C(OCCOc2ccc(Cl)cc2Cl)OC(COC(C)=O)C(OC(C)=O)C1OC(C)=O (stereo unspecified)
**A:** -0.3

**Q:** Retrieve inhibition measured for CC(C)CN1CCN(Cc2cccn2-c2ccccn2)CC1CCO (stereo unspecified) and print it.
**A:** -0.5

**Q:** State, in one line, measured inhibition of "N/C(=N/OS(=O)(=O)c1ccc([N+](=O)[O-])cc1)c1ccncc1"
**A:** 0.3

**Q:** Give inhibition for "COc1cc(OC)c(C(=O)CCCN2CCCC2)c(OC)c1"
**A:** -0.9

Source: PubChem BioAssay
